Assign growth to each entry below.
Tested on: NCI-H23 lung
MEASUREMENT NOTES: NCI-60 one-dose screen, 48 h (100 = growth as untreated, 0 = no growth, -100 = all killed)
APPLIED CONDITIONS: 10 µM unless noted
Compounds without any hit were thinned out: in the full panel of roughly 83,000, 20% have a hit.
Write down the numeric answer in % and omit the unit.

Would you mind telling me what growth value was observed for O=[N+]([O-])c1ccc(-c2ncc(-c3ccc(O)cc3O)[nH]2)cc1 ?
105

Can you look up the measured growth of O=C(Oc1ccccc1)c1ccccc1Cl for me?
104

Give the measured growth of Cc1nc2c(nnn2-c2ccccc2)c2nc(-c3ccc(Cl)cc3)oc(=O)c12 .
116

So what's the measured growth for this one? CCC1(CC)C(OC)NC(Br)=C(C#N)C1(C#N)C(N)=O (stereo unspecified)
99.1

Any idea what growth was measured for CCCCN(CCCC)CCCNc1c2c(nc3ccc(Cl)cc13)CCCC2 ?
82

Requested field: growth. Item: CSc1nc(N)n2nccc2n1
107

What does the record list as growth for CC(=O)OCC1O[C@@H](OC(C)=O)[C@@H](NC(=O)NS(=O)(=O)c2ccccc2)C(OC(C)=O)[C@@H]1OC(C)=O (stereo partly specified) ?
113

# lookup: growth of CCN(CC)CCOC(=O)c1cccnc1
95.8

Item under review: CCCNC(=O)Oc1ccc(/C(=C(/C)Cc2ccc(OC)cc2)c2ccc(OCCN3CCCC3)cc2)cc1 . Reported growth?
84.1

growth lookup needed for CC(=O)NNC(=O)c1sc(NC(C)=O)nc1C , thanks.
98.2

growth for Cc1sc(NC(=O)c2ccc(C(C)(C)C)cc2)c(C(=O)O)c1C ?
62.9

All values here come from PubChem BioAssay (NCI).
